Target: GlcNAc(b1-4)GlcNAc(b1-4)GlcNAc(b1-4)GlcNAc(b1-4)GlcNAc(b1-4)GlcNAc
Assay: glycan array binding signal (z-score within array); higher = stronger binding
Conditions: glycan notation: IUPAC condensed, linker removed
Many of the other results were omitted from the sample, so the strongest signals are more common in it than they were.
So basically every entry gets a class from its glycan array binding signal (z-score), ranges being 1: < -0.4; 2: ≥ -0.4 and < -0.1; 3: ≥ -0.1

Input line: Hello team, could you let me know which band the following binder falls into: SynCAM (Mus musculus) (protein) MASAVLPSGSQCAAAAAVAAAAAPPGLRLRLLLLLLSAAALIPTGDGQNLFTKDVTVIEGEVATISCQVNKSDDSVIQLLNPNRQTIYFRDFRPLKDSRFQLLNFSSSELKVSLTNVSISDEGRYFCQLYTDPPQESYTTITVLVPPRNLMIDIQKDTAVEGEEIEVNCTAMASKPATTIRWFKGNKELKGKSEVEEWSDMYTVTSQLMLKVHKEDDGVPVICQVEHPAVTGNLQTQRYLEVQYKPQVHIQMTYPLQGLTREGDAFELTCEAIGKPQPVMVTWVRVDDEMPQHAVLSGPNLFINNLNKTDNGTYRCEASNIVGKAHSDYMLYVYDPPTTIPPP
Output line: 3

Input line: Lab log: Si Bti9 1b-V5-his (Solanum lycopersicum) (protein) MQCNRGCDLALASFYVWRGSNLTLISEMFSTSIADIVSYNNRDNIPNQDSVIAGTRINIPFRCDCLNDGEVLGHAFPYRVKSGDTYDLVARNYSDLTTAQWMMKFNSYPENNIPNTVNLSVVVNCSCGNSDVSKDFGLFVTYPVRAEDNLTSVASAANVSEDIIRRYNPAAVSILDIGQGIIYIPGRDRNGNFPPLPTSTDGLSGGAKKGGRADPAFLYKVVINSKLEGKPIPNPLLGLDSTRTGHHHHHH — assign glycan array binding signal (z-score) category
Output line: 2

Input line: Form: Item = GNL (Galanthus nivalis) (protein) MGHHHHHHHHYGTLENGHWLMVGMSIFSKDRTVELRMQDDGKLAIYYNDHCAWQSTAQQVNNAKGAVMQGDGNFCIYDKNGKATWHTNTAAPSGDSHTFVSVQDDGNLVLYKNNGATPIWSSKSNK ; Class = ?
Output line: 2

Input line: Lab note: sort Surfactant Protein D (rat); Neck + Carbohydrate Recognition Domain (NCRD) (Rattus norvegicus) (protein) MLLFLLSALVLLTQPLGYLEAEMKTYSHRTMPSACTLVMCSSVESGLPGRDGRDGREGPRGEKGDPGLPGAAGQAGMPGQAGPVGPKGDNGSVGEPGPKGDTGPSGPPGPPGVPGPAGREGALGKQGNIGPQGKPGPKGEAGPKGEVGAPGMQGSAGARGAGPKGERGVPGERGVPGNTGAAGSAGAMGPQGSPGARGPPGLKGDKGIPGDKGAKGESGLPDVASLRQQVEALQGQVQHLQAAFSQYKKVELFPNGQSVGEKIFKTAGFVKPFTEAQLLCTQAGGQLASPRSAAENAALQQLVVAKNEAAFLSMTDSKTEGKFTYPTGESLVYSNWAPGEPNDDGGSEDCVEIFTNGKWNDRACGEKRLVVCEF into the matching glycan array binding signal (z-score) band.
Output line: 2

Input line: Which class is correct for the following binder? TbCVNHOa (Tuber borchii), Q5MK11 (protein) MSYADSSRNAVLTNGGRTLRAECRNADGNWVTSELDLDTCIGNPNGFLGWGMQNFSHSSEDIKLEEGGRKLTCRPKTVDGGFRERQGIDLNRIQNVNGRLVFQ
Output line: 1

Input line: Input ZG16p (Homo sapiens), O60844 (protein) ARSSSYSGEYGGGGGKRFSHSGNQLDGPITALRVRVNTYYIVGLQVRYGKVWSDYVGGRNGDLEEIFLHPGESVIQVSGKYKWYLKKLLFVTDKGRYLSFGKDSGTSFNAVPLHPNTVLRFISGRSGSLIDAIGLHWDVYPSSCSRC ; output its category
Output line: 2

Input line: Would you mind sorting EUL D1A first (Oryza sativa) (protein) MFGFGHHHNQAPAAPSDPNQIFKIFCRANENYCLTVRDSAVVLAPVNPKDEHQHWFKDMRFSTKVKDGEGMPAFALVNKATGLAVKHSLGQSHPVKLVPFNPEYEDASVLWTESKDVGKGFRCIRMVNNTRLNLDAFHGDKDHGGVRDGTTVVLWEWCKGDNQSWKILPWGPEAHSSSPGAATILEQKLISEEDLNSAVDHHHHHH into the appropriate category?
Output line: 1

Input line: Class (by measured glycan array binding signal (z-score)) for LFA (Limax flavus) (protein) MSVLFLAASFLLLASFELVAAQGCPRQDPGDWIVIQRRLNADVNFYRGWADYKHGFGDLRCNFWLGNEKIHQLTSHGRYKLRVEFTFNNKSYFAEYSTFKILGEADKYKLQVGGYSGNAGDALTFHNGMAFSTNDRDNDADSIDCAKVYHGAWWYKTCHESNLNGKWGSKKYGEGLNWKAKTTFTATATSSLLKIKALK
Output line: 3
